target-or-test-system: von Hippel-Lindau disease tumor suppressor/Bcl-2-like protein 1 (Homo sapiens, UniProt Q07817+P40337)
Sequence (P40337 whole entry, looked up): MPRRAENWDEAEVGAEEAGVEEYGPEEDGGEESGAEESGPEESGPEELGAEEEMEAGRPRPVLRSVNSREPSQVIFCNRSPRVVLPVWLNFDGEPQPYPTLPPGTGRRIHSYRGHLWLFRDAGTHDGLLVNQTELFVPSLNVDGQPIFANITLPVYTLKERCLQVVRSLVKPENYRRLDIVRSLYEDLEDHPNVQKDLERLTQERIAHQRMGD
Sequence (Q07817 whole entry, looked up): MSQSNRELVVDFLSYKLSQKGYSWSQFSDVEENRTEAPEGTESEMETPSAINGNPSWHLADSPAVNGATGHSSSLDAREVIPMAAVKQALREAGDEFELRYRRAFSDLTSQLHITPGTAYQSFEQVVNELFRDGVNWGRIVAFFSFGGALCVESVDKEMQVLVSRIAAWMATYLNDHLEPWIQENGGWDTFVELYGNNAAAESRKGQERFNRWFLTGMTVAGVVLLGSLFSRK
assay-overview: Protac activity at VHL/BCL-XL in human MOLT-4 cells assessed as induction of BCL-XL degradation by measuring remaining BCL-XL level at 100 nM measured after 16 hrs by immunoblotting analysis relative to control
Assay type: cell-based
measured-property: Activity (%)
Provide the reading as a plain figure in %.

smiles-str	unit-name	Activity
Cc1ncsc1-c1ccc([C@H](C)NC(=O)[C@@H]2C[C@@H](O)CN2C(=O)[C@@H](NC(=O)CCCCN(C)CC[C@H](CSc2ccccc2)Nc2ccc(S(=O)(=O)NC(=O)c3ccc(N4CCN(CC5=C(c6ccc(Cl)cc6)CCC(C)(C)C5)CC4)cc3)cc2S(=O)(=O)C(F)(F)F)C(C)(C)C)cc1	%	75

As a next step, examine the compound that follows.
Fill blank: measured Activity of the compound "Cc1ncsc1-c1ccc([C@H](C)NC(=O)[C@@H]2C[C@@H](O)CN2C(=O)[C@@H](NC(=O)COCCOCCN(C)CC[C@H](CSc2ccccc2)Nc2ccc(S(=O)(=O)NC(=O)c3ccc(N4CCN(CC5=C(c6ccc(Cl)cc6)CCC(C)(C)C5)CC4)cc3)cc2S(=O)(=O)C(F)(F)F)C(C)(C)C)cc1" is ____. 24

---

assay-overview: Toxicity in human platelet assessed as reduction in cell viability measured after 48 hrs by MTS assay
Type: tissue-based
test-context: human platelets
measured-property: IC50 at 48 h

Completed entries (count: 2):
molecule	value-measured
Cc1ncsc1-c1ccc([C@H](C)NC(=O)[C@@H]2C[C@@H](O)CN2C(=O)[C@@H](NC(=O)CCCCCC(=O)N2CCN(CC[C@H](CSc3ccccc3)Nc3ccc(S(=O)(=O)NC(=O)c4ccc(N5CCN(CC6=C(c7ccc(Cl)cc7)CCC(C)(C)C6)CC5)cc4)cc3S(=O)(=O)C(F)(F)F)CC2)C(C)(C)C)cc1 [DT-2216]	> 10 µM
Cc1ncsc1-c1ccc([C@H](C)NC(=O)[C@@H]2C[C@@H](O)CN2C(=O)[C@@H](NC(=O)CCCCCN2CCN(CC[C@H](CSc3ccccc3)Nc3ccc(S(=O)(=O)NC(=O)c4ccc(N5CCN(CC6=C(c7ccc(Cl)cc7)CCC(C)(C)C6)CC5)cc4)cc3S(=O)(=O)C(F)(F)F)CC2)C(C)(C)C)cc1	> 10 µM

Let's switch to this molecule now.
GET /values?readout=IC50 at 48 h&item= "Cc1ncsc1-c1ccc([C@H](C)NC(=O)[C@@H]2C[C@@H](O)CN2C(=O)[C@@H](NC(=O)CCCCCCN(C)CC[C@H](CSc2ccccc2)Nc2ccc(S(=O)(=O)NC(=O)c3ccc(N4CCN(CC5=C(c6ccc(Cl)cc6)CCC(C)(C)C5)CC4)cc3)cc2S(=O)(=O)C(F)(F)F)C(C)(C)C)cc1" > 10 µM

---

target-or-test-system: von Hippel-Lindau disease tumor suppressor/Bcl-2-like protein 1 (Homo sapiens, UniProt Q07817+P40337)
assay-overview: Protac activity at VHL/BCL-XL in human MOLT-4 cells assessed as induction of BCL-XL degradation by measuring remaining BCL-XL level at 100 nM measured after 16 hrs by immunoblotting analysis relative to control
Assay type: cell-based
Item-by-item account of Activity
Give a bare numeral; the unit % is implied.

As a guide, the following entries are already answered.
smiles-str	value-measured
Cc1ncsc1-c1ccc([C@H](C)NC(=O)[C@@H]2C[C@@H](O)CN2C(=O)[C@@H](NC(=O)COCCOCCOCCN(C)CC[C@H](CSc2ccccc2)Nc2ccc(S(=O)(=O)NC(=O)c3ccc(N4CCN(CC5=C(c6ccc(Cl)cc6)CCC(C)(C)C5)CC4)cc3)cc2S(=O)(=O)C(F)(F)F)C(C)(C)C)cc1	33
Cc1ncsc1-c1ccc([C@H](C)NC(=O)[C@@H]2C[C@@H](O)CN2C(=O)[C@@H](NC(=O)CCCCC(=O)N2CCN(CC[C@H](CSc3ccccc3)Nc3ccc(S(=O)(=O)NC(=O)c4ccc(N5CCN(CC6=C(c7ccc(Cl)cc7)CCC(C)(C)C6)CC5)cc4)cc3S(=O)(=O)C(F)(F)F)CC2)C(C)(C)C)cc1	52
Cc1ncsc1-c1ccc([C@H](C)NC(=O)[C@@H]2C[C@@H](O)CN2C(=O)[C@@H](NC(=O)CCCCCCN2CCN(CC[C@H](CSc3ccccc3)Nc3ccc(S(=O)(=O)NC(=O)c4ccc(N5CCN(CC6=C(c7ccc(Cl)cc7)CCC(C)(C)C6)CC5)cc4)cc3S(=O)(=O)C(F)(F)F)CC2)C(C)(C)C)cc1	62

What value of measured Activity is listed for "Cc1ncsc1-c1ccc([C@H](C)NC(=O)[C@@H]2C[C@@H](O)CN2C(=O)[C@@H](NC(=O)CCCCCCCN(C)CC[C@H](CSc2ccccc2)Nc2ccc(S(=O)(=O)NC(=O)c3ccc(N4CCN(CC5=C(c6ccc(Cl)cc6)CCC(C)(C)C5)CC4)cc3)cc2S(=O)(=O)C(F)(F)F)C(C)(C)C)cc1" ? 45
